furin cleavage Z-score reference
Biological target: furin, P09958;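 further: purified furin at 1:10 enzyme:substrate in 50 mM HEPES pH 7.5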
Sequence (P09958 whole entry): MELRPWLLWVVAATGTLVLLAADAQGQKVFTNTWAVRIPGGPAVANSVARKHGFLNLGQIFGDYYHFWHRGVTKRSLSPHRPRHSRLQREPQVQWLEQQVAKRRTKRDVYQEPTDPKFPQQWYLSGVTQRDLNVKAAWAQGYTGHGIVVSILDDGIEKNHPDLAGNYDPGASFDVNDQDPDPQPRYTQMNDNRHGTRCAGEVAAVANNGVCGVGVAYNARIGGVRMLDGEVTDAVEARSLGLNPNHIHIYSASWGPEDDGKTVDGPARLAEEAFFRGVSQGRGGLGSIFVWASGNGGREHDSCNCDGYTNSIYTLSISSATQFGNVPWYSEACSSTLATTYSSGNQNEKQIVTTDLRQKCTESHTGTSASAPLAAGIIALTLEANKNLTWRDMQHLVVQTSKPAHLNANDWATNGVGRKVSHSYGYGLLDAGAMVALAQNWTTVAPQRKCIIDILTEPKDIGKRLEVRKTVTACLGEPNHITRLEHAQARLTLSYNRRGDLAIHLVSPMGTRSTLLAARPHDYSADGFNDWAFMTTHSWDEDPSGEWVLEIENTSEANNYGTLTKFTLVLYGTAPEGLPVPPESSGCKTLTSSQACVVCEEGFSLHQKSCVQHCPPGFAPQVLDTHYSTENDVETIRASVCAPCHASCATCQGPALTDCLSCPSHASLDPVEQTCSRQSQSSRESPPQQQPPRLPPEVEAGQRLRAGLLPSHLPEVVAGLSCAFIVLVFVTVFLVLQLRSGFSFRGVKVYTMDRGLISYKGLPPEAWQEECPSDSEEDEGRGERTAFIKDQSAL
Assay: furin cleavage Z-score vs untreated control; higher = more cleavage, active = 3.5 or more, inactive = 1 or less, 8 variable residues between constant flanks
Conditions: 7.5 min
The other results are listed elsewhere or left out. The hit rate among all sequences tested is not known here.
Reply: number alone, nothing else.

seqString	endpointLabel	quantitativeResult
CANLSRNRRLAGNASASA [FS-697]	furin cleavage Z-score	2.54
CADQEREKRSAGNASASA [FS-1115]	furin cleavage Z-score	2.32

Please look up its furin cleavage Z-score: CAIPARELRNAGNASASA [FS-254]
1.11
